- Experimental target: T1, rat angiotensin 2 type 1 receptor (rat, UniProt P25095 1-359)
- T1 sequence (looked up): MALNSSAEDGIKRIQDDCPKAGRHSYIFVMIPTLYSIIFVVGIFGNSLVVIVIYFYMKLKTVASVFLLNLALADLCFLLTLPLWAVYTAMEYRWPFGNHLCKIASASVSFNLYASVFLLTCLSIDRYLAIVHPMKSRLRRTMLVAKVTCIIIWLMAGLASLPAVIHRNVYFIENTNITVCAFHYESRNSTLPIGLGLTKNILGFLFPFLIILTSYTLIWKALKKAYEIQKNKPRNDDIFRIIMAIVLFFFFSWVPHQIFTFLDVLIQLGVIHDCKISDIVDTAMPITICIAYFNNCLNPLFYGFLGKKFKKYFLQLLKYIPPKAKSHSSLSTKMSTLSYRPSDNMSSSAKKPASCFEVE
- Procedure details: cell-based or functional assay
Non-standard residues stand in square brackets, D forms with d. No end group written: not given here. Sar = CNCC(=O)O
Please note: 1 applies when b-arrestin2 EC50 is 300 nM or greater, and 0 applies otherwise.

Binder	Class label
ARVYIHPA (NMAla (N-methyl-L-alanine) at 1) [SEQ ID NO: 34]	0
[Sar]RVYIKP[dA]-OH (N-terminus assumed; SMILES CC[C@H](C)[C@H](NC(=O)[C@H](Cc1ccc(O)cc1)NC(=O)[C@@H](NC(=O)[C@H](CCCNC(=N)N)NC(=O)CNC)C(C)C)C(=O)N[C@@H](CCCCN)C(=O)N1CCC[C@H]1C(=O)N[C@H](C)C(=O)O) [SEQ ID NO: 50]	0
ERVYFHP (N-Me-Glu (N-methyl-L-glutamic acid) at 1; C-terminal amide (NH2)) [SEQ ID NO: 66]	1
DRVYIHPG-OH [SEQ ID NO: 56]	0
XRVYVHP (Sar (sarcosine) at 1) [SEQ ID NO: 54]	0
[Sar]RVY[dA]HP-NH2 (N-terminus assumed; SMILES CNCC(=O)N[C@@H](CCCNC(=N)N)C(=O)N[C@H](C(=O)N[C@@H](Cc1ccc(O)cc1)C(=O)N[C@H](C)C(=O)N[C@@H](Cc1c[nH]cn1)C(=O)N1CCC[C@H]1C(N)=O)C(C)C) [SEQ ID NO: 53]	1
VYIHPF (cyclic, as printed: Cyclo(...)) [SEQ ID NO: 38]	1
